- TEST TARGET: T1, recombinant human CD73 protein (ACRO Biosystems, item No. CD3-H52H7) (human, UniProt P21589 27-547)
- T1 construct: also called recombinant CD73 protein
- T1 sequence (looked up): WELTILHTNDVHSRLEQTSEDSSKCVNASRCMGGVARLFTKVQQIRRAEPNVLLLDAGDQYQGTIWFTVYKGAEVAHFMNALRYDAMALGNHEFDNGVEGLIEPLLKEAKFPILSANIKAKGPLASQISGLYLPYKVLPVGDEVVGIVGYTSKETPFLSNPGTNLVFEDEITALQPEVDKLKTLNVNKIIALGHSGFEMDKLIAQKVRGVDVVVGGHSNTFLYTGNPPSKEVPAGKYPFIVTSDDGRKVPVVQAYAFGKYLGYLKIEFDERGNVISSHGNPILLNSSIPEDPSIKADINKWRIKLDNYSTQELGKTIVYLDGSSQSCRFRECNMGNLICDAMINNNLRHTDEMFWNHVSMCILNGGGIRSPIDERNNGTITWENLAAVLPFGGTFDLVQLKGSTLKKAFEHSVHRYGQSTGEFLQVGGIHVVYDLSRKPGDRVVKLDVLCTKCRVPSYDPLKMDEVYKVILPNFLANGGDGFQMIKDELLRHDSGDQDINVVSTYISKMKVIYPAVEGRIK
- TEST SUMMARY: SPR, Biacore T200, antibody captured on protein A chip, human CD73 as analyte, 1:1 model
EXPERIMENTAL READOUT: koff (s⁻¹)
Answers are plain numbers, in s⁻¹.

Q: So what's the measured koff for this one? 900725 (humanized anti-CD73 antigen-binding protein) (antibody, V domains shown) VH: QVQLVQSGAEVKKPGASVKLSCKASGYTFTSYWIHWVRQAPGQGLEWIGMIHPNSGSTYYNEKFKGRATLTVDKSTSTAYMELSSLRSEDTAVYYCARYYGSDYEWYFDVWGQGTTVTVSS VL: DIQMTQSPSSMSASVGDRVTITCKASQNVRTAVVWYQQKPGKAPKALIYLASNRHTGVPDRFSGSGSGTDFTLTISSLQPEDFATYFCLQHWNYPYTFGQGTKLEIK
Ans: 0.000126
